Source of measurements: the kinase profiling compilation of Christmann-Franck et al. (2016)

target of assay: UniProt:P27448
Sequence (P27448 whole entry, looked up): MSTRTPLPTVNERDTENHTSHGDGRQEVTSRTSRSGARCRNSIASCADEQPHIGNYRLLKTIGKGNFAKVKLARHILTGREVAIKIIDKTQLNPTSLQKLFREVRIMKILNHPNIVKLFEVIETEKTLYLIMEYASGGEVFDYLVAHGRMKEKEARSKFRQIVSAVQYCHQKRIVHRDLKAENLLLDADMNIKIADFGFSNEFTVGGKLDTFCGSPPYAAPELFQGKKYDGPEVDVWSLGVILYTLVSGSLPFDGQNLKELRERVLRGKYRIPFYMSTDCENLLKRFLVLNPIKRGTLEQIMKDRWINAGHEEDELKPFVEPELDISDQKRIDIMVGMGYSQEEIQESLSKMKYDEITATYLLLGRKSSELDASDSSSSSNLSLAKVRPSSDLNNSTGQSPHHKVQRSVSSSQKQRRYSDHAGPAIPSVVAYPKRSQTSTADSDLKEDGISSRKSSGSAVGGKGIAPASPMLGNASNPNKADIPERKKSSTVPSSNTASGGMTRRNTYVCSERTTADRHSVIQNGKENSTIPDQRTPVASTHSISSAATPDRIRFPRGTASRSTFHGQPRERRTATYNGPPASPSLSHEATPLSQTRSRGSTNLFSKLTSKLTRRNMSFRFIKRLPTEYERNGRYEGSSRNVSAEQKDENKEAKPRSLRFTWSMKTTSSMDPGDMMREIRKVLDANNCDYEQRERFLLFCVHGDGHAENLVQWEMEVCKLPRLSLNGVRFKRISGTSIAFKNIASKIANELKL
test method notes: radiometric filter-binding kinase assay
conditions: compound 10.0 µM
Binning rule for recorded residual activity: lo (below 70%), mid (70% to below 90%), hi (90% or more)

Field: example entries. Status: answers known.
# molecular string, target of assay, assigned category
measured = [
    ("Cc1cccc(Nc2nn(C)c3ncnc(N)c23)c1", "UniProt:P27448", "hi"),
    ("O=C(O)c1ccc(-c2c[nH]c3ncc(-c4ccccc4)cc23)cc1C1CCCC1", "UniProt:P27448", "lo"),
    ("Oc1ccc(/C=C/c2cc(O)cc(O)c2)cc1", "UniProt:P27448", "mid"),
    ("O=c1c(O)c(-c2ccc(O)c(O)c2)oc2cc(O)c(O)c(O)c12", "UniProt:P27448", "lo"),
]

Alright, here's another molecule for you.
Which bin, given its residual activity, does `CN1C(=O)[C@@H](Cc2c[nH]c3ccccc23)NC1=S` occupy?
hi
